Below, each of the binders is paired with its reported pKd value.
# SYSTEM: T1, His-tagged human HtrA1 protease domain (human, UniProt Q92743 161-367)
# T1 construct: His-tagged protease domain; also called huHtrA1-PD-His; huHtrA1-PD
# T1 sequence (Q92743 other isoform, or with tags, fused parts or gaps limits assumed): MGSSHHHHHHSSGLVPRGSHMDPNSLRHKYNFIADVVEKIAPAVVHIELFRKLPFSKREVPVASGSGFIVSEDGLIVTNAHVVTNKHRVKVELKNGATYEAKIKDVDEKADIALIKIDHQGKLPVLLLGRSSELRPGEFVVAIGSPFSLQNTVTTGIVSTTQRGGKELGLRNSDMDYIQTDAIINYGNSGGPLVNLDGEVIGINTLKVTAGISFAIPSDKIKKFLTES
# MEASUREMENT PROTOCOL: SPR (BIACORE T200), huHtrA1-PD-His captured by anti-His, Fab injected
Scale: pKd equals -log10([C]), with [C] in mol/L.

combination mutant LC4.HC2 Fab (Fab, V domains shown, Fab) VH: EVQLVQSGAEVKKPGASVKVSCKASGYTFRDSEMHWVRQAPGQGLEWIGGVDPETDGAAYNQKFKGRATITRDTSTSTAYLELSSLRSEDTAVYYCTRGYDYDYALDYWGQGTLVTVSS VL: DIQMTQSPSSLSASVGDRVTITCRASSSVNFIHWYQQKPGKAPKPLISATSHLASGVPSRFSGSGSGTDFTLTISSLQPEDFATYYCQQWSSNPWTFGQGTKVEIK; 8.10
combination mutant LC4.HC5 Fab (Fab, V domains shown, Fab) VH: EVQLVQSGAEVKKPGASVKVSCKASGYTFTDSELHWVRQAPGQGLEWIGGVDPETDGAAYNQKFKGRATITRDTSTSTAYLELSSLRSEDTAVYYCTRGYDYDYALDYWGQGTLVTVSS VL: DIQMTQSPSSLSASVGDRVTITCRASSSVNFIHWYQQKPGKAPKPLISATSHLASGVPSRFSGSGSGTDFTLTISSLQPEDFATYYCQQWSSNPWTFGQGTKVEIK; 8.85
combination mutant LC3.HC2 Fab (Fab, V domains shown, Fab) VH: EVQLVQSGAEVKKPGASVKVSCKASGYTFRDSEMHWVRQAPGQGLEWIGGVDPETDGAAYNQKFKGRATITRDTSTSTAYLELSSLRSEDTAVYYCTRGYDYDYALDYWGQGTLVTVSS VL: DIQMTQSPSSLSASVGDRVTITCRASSSVEFIHWYQQKPGKAPKPLISATSNLASGVPSRFSGSGSGTDFTLTISSLQPEDFATYYCQQWSSNPWTFGQGTKVEIK; 9.52

Which measured pKd value corresponds to h15H6.v2 variant LC3 (LC-N31E) Fab (Fab, V domains shown, Fab-Flag tag fusion from 293T cells) VH: EVQLVQSGAEVKKPGASVKVSCKASGYTFTDSEMHWVRQAPGQGLEWIGGVDPETDGAAYNQKFKGRATITRDTSTSTAYLELSSLRSEDTAVYYCTRGYDYDYALDYWGQGTLVTVSS VL: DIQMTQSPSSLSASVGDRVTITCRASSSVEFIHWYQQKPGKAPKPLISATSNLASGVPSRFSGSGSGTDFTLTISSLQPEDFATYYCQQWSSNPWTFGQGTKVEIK ?
9.04

Param item: combination mutant LC4.HC3 Fab (Fab, V domains shown, Fab) VH: EVQLVQSGAEVKKPGASVKVSCKASGYKFTDSEMHWVRQAPGQGLEWIGGVDPETDGAAYNQKFKGRATITRDTSTSTAYLELSSLRSEDTAVYYCTRGYDYDYALDYWGQGTLVTVSS VL: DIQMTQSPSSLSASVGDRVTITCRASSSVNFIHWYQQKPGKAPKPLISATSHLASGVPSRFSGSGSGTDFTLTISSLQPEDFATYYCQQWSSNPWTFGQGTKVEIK
8.66

Param item: combination mutant LC5.HC2 Fab (Fab, V domains shown, Fab) VH: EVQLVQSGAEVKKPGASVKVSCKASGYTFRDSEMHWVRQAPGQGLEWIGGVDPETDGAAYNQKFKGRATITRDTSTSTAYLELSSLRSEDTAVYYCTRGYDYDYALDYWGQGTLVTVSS VL: DIQMTQSPSSLSASVGDRVTITCRASSSVNFIHWYQQKPGKAPKPLISATSELASGVPSRFSGSGSGTDFTLTISSLQPEDFATYYCQQWSSNPWTFGQGTKVEIK
9.14

Param item: h15H6.v2 Fab (Fab, V domains shown, Tested as Fab; also called parent; parental Fab) VH: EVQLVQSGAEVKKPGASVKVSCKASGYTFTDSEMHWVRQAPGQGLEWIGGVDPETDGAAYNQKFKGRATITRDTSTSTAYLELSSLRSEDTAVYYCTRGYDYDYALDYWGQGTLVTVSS VL: DIQMTQSPSSLSASVGDRVTITCRASSSVNFIHWYQQKPGKAPKPLISATSNLASGVPSRFSGSGSGTDFTLTISSLQPEDFATYYCQQWSSNPWTFGQGTKVEIK
9.66

Param item: combination mutant LC3.HC5 Fab (Fab, V domains shown, Fab) VH: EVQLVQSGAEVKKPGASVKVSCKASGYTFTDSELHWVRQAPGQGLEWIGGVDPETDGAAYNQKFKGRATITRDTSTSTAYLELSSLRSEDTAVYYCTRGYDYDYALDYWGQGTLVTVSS VL: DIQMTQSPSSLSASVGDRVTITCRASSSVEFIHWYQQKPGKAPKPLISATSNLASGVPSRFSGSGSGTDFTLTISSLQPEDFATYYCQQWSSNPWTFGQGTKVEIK
9.75

Param item: combination mutant LC5.HC5 Fab (Fab, V domains shown, Fab) VH: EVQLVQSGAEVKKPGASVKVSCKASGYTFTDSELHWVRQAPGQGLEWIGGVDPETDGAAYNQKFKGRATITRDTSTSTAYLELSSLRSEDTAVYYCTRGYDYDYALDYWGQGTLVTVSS VL: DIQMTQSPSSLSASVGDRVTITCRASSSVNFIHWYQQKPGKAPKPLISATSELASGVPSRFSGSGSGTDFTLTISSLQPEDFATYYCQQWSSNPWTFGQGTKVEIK
9.06

Param item: h15H6.v2 variant LC7 (LC-S92Y) Fab (Fab, V domains shown, Fab-Flag tag fusion from 293T cells) VH: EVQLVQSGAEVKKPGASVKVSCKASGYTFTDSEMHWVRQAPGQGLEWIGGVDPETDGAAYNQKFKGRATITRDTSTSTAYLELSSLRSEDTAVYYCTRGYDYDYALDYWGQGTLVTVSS VL: DIQMTQSPSSLSASVGDRVTITCRASSSVNFIHWYQQKPGKAPKPLISATSNLASGVPSRFSGSGSGTDFTLTISSLQPEDFATYYCQQWYSNPWTFGQGTKVEIK
8.86
